Biological target: T1, human prostate specific membrane antigen (PSMA), full-length, on cells (human, UniProt Q04609 1-750)
T1 construct: also called huPSMA; human PSMA
T1 sequence (Q04609 whole entry): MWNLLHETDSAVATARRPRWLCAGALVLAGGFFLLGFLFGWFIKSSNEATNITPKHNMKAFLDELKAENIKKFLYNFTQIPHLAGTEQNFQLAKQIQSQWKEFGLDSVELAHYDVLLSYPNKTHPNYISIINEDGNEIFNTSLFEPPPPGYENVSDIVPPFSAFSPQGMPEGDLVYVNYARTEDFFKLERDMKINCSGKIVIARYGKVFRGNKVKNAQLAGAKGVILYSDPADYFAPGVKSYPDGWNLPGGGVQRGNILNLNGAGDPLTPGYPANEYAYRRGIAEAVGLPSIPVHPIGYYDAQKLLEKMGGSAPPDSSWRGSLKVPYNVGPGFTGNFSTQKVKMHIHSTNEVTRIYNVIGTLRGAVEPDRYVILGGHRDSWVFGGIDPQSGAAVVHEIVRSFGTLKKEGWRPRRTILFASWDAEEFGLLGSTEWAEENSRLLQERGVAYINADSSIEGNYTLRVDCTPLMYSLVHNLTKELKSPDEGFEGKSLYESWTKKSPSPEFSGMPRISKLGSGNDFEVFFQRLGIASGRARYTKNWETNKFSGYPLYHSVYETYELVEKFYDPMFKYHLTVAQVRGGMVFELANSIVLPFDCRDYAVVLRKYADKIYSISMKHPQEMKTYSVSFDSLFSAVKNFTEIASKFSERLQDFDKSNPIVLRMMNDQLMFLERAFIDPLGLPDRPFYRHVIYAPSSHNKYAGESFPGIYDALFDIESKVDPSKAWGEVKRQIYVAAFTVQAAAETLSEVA
Test: FMAT direct cell binding, human PSMA-CHO cells
RECORDED ENDPOINT: EC50 (nM)
Answer with a number only, understood to be in nM.

## Input Sample 1.18-6GS-2.17 (bispecific antibody, linker (G4S)6) EVQLLESGGGLVQPGGSLRLSCAASGFSFSSYALSWVRQAPGKGLEWVSSIGENNATTDYAASVKGRFTISRDNSKNTLYLQMNSLRVEDTAVYYCVKDGVHWGQGTLVTVSSGGGGSGGGGSGGGGSGGGGSGGGGSGGGGSEVQLVESGGGVVQPGRSLRLSCAASGFSFSGYGMHWVRQAPGKGLEWVAYISYDASNKYYADNVKGRFTISRDNSKNTLYLQMNSLRAEDTAVYYCAKDPAWGLRLGESSSYDFDIWGQGTMVTVSS — what was its EC50?
## Output 0.278
